protein stability index listing for selected variants.
B1: TRIM35 (parent)
chain: DKELLCCSCQADPRHQGHRVQPVK

- Variants of: B1
- experimental_details: protein stability index of a GFP-peptide fusion (GPS, HEK-293T) (PSI 1-6); higher = more stable;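 further: lentivirally expressed fusions sorted by FACS into six bins by GFP to DsRed ratio, PSI derived from sequencing read proportions per bin multiplied by bin number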
- condition_context: c terminus: a fixed tail appended

mutation_code: L5R
protein stability index: 3.32
--
mutation_code: A11I
protein stability index: 3.52
--
mutation_code: C9L
protein stability index: 3.09
--
mutation_code: G17V
protein stability index: 3.08
--
mutation_code: K2M
protein stability index: 3.65
--
mutation_code: H18S
protein stability index: 4.38
--
mutation_code: C9N
protein stability index: 4.6
--
mutation_code: D12Y
protein stability index: 2.75
--
mutation_code: Q21W
protein stability index: 2.52
--
mutation_code: Q21P
protein stability index: 3.56
--
mutation_code: S8F
protein stability index: 2.24
--
mutation_code: E3V
protein stability index: 2.45
--
mutation_code: K2Q
protein stability index: 3.78
--
mutation_code: P22H
protein stability index: 3.31
--
mutation_code: P22E
protein stability index: 4.53
--
mutation_code: P13I
protein stability index: 3.69
--
mutation_code: Q21Y
protein stability index: 2.91
--
mutation_code: V20P
protein stability index: 4.54
--
mutation_code: Q10L
protein stability index: 2.85
--
mutation_code: L5C
protein stability index: 3.88
--
mutation_code: H15P
protein stability index: 3.54
--
mutation_code: V23Q
protein stability index: 4.13
--
mutation_code: R14G
protein stability index: 3.03
--
mutation_code: L5S
protein stability index: 4.44
--
mutation_code: Q10E
protein stability index: 4.44
--
mutation_code: S8K
protein stability index: 3.78
--
mutation_code: L5K
protein stability index: 3.58
--
mutation_code: R19F
protein stability index: 2.66
--
mutation_code: H18V
protein stability index: 2.73
--
mutation_code: K2A
protein stability index: 3.54
--
mutation_code: R14I
protein stability index: 4.18
--
mutation_code: V20S
protein stability index: 3.71
--
mutation_code: P22Q
protein stability index: 4.04
--
mutation_code: K2F
protein stability index: 2.63
--
mutation_code: K2G
protein stability index: 3.05
